Observed pIC50 for UniProt:P42336, reported per entry below.
Sequence (P42336 whole entry, species assumed): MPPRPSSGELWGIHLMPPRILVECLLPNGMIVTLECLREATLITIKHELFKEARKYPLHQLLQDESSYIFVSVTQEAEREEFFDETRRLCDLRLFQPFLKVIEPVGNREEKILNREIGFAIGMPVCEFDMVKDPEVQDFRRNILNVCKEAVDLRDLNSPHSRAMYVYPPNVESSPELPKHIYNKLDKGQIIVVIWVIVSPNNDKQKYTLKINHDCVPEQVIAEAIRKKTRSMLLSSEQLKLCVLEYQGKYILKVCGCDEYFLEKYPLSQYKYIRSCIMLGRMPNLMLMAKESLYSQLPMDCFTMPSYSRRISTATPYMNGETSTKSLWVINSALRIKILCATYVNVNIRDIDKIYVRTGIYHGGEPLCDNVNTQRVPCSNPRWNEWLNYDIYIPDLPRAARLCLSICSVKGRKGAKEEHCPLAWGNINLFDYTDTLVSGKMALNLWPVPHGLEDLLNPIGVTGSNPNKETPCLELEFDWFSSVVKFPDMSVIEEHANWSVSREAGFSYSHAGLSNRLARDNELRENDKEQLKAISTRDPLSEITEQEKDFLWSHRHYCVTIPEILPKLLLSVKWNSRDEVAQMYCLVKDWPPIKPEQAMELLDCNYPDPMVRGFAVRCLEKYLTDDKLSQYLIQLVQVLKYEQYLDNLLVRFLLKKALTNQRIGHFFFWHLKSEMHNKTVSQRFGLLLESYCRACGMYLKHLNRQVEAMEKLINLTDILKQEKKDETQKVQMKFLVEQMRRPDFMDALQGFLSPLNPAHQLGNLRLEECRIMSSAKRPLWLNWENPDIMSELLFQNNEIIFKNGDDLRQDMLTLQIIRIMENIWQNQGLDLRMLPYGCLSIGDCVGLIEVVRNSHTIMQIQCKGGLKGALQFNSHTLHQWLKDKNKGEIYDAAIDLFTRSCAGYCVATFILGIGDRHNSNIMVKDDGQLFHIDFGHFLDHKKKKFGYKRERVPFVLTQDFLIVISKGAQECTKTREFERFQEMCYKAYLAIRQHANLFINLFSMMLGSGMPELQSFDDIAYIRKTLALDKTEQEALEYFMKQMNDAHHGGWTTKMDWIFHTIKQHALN
Sequence (P27986 whole entry partner, species assumed): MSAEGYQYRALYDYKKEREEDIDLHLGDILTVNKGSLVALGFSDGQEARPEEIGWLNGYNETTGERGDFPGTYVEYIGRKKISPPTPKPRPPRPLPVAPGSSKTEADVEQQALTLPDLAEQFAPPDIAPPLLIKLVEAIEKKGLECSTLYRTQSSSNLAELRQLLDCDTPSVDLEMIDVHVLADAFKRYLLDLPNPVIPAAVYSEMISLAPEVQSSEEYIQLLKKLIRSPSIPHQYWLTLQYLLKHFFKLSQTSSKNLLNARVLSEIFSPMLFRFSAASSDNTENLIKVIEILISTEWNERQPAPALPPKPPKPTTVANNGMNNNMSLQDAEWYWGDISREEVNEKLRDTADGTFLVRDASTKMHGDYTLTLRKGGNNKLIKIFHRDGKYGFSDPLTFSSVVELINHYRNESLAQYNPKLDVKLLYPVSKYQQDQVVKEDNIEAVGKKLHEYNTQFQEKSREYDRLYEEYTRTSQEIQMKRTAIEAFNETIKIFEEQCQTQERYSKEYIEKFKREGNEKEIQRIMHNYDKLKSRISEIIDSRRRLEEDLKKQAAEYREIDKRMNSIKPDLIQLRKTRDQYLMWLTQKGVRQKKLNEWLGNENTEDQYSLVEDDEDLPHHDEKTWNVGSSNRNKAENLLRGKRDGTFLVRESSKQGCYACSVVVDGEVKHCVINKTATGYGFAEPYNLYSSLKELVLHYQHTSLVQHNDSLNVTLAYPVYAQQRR
pIC50: −log10 of the molar value.
quantity-measured: pIC50

[1] c1cc2ncc(N3CCOCC3)nc2cc1-c1cnc2[nH]ncc2c1
[2] COc1ccc(-c2ccc3ncc(N4CCOCC4)nc3c2)cn1
Challenge: Of the pair 1 and 2 , name the member with the lesser recorded pIC50. Answer with the label corresponding to your selection.
Response given: 2
(2: 7.00, 1: 8.30)
